Numbers sourced from ChEMBL document CHEMBL1795299.

- SYSTEM TESTED: Tyrosine-protein phosphatase non-receptor type 1 (Homo sapiens)
- PROTOCOL NOTES: Inhibition of human recombinant PTP1B assessed as inhibition of para-nitrophenyl phosphate to para-nitrophenol conversion at 100 uM by spectrophotometry
Activity calls are given as the source filed them. No cut-off for these calls is given here.
Hi there, use one of these labels in your reply, thanks! label 1 for active, label 0 for inactive

| CPD SMILES | QUALITATIVE LABEL |
| --- | --- |
| O=C1CCNC(=O)c2c1ccn2Cc1ccc(-c2ccc(O)cc2)cc1 | label 1 |
| O=C1CCNC(=O)c2c1ccn2Cc1ccccc1 | label 0 |
| CCc1ccc(-n2ccc3c2C(=O)NCCC3=O)cc1 | label 0 |
| CC(=O)c1ccc(-n2ccc3c2C(=O)NCCC3=O)cc1 | label 0 |
| N#Cc1ccccc1-c1ccc(Cn2ccc3c2C(=O)NCCC3=O)cc1 | label 0 |

Could you please tell me the result logged for "COc1ccc(-c2ccc(Cn3ccc4c3C(=O)NCC/C4=N\Nc3ccccn3)cc2)cc1" in this assay?
label 1

Test call for this compound, please: "COc1ccc(-c2ccc(Cn3c4c(c5ccccc53)C(=O)CCNC4=O)cc2)cc1"
label 1

Query: recorded result category for "CCCOc1ccc(-c2ccc(Cn3ccc4c3C(=O)NCCC4=O)cc2)cc1" in this test
label 1

Recorded call for "O=C1CCNC(=O)c2c1ccn2-c1ccc(C(F)(F)F)cc1" ?
label 0

What did the test return for "COc1ccc(-c2ccc(Cn3ccc4c3C(=O)N(C)CCC4=O)cc2)cc1" ?
label 1

Can you look up the reported call for "Nc1cccc(-c2ccc(Cn3ccc4c3C(=O)NCCC4=O)cc2)c1" for me?
label 0
